From: ChEMBL document CHEMBL1201862

# reported GI50; entries follow
- System: SF-539
- test: NCI tumour cell line growth inhibition, 48 h
Activity calls are given as the source filed them. Cut-off read from the data, not from the text of the source: active = GI50 up to about 1.1 µM and inactive = higher.

The following compounds have reported results that may help.
- compound: "Nn1c(Cc2ccc(Cl)cc2)n[nH]c1=O"
  GI50: "> 100 µM (inactive)"
- compound: "NC1=NC(=O)/C(=C/c2ccccc2[N+](=O)[O-])C(N)=N1"
  GI50: "> 100 µM (inactive)"
- compound: "COC(=O)/C(C#N)=C1\\NC(=O)CC(c2ccccc2)C1C#N (stereo unspecified)"
  GI50: "> 100 µM (inactive)"
- compound: "C[C@]12CC[C@H](O)CC1=CC[C@@H]1C2CC[C@]2(C)C(=O)NC(=O)CC12 (stereo partly specified)"
  GI50: "> 100 µM (inactive)"
- compound: "COc1ccc(-c2nc(-c3cc4ccccc4oc3=O)cs2)cc1"
  GI50: "30.9 µM (inactive)"

[ask] # return recorded GI50 for entry CN(C)CC1(Cc2ccccc2)CCC(Cc2ccccc2)C1=O (stereo unspecified)
[reply] 18.1 µM (inactive)
